assayed-system: COX-2 (Mus musculus (Mouse))
Sequence (Q05769 18-604): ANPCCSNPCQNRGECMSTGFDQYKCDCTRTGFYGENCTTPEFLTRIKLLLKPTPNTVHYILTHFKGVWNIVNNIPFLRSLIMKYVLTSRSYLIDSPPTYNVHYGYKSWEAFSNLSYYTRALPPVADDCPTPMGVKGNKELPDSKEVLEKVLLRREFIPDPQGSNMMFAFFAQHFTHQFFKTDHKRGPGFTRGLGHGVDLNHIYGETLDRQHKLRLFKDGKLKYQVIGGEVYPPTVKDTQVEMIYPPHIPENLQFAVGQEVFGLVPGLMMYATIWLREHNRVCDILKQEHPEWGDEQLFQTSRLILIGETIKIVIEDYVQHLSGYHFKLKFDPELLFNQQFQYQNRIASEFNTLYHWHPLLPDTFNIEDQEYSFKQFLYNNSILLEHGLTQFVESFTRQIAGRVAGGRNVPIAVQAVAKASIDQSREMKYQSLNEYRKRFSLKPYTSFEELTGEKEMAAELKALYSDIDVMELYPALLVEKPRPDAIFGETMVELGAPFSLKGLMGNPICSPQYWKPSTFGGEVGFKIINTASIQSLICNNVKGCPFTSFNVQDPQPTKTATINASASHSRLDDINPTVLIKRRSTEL
assay-method-text: Cell-based COX-2 assay (PGE2 in LPS/IFN-g stimulated RAW264.7 cells)
measurement-parameters: RAW264.7 murine macrophages, LPS + IFN-g, PGE2 readout

compound: NS(=O)(=O)c1ccc(-n2nc(CCCCCCCCN3CC[S][Re]4(=[O])[S]CC[N]4CC3)cc2-c2ccc(F)cc2)cc1 (stereo not drawn)
assayed-system: COX-2 (Mus musculus (Mouse))
units-label: µM
IC50: 0.32
//
compound: COc1ccc(-c2cc(COCCCCCCCN3CC[S][Re]4(=[O])[S]CC[N]4CC3)nn2-c2ccc(S(N)(=O)=O)cc2)cc1 (stereo not drawn)
assayed-system: COX-2 (Mus musculus (Mouse))
units-label: µM
IC50: 0.22
//
compound: Cc1ccc(-c2cc(COCCCCCCC[N+]34CC[S][Re]35(=[O])[S]CC[N]5CC4)nn2-c2ccc(S(N)(=O)=O)cc2)cc1 (stereo not drawn)
assayed-system: COX-2 (Mus musculus (Mouse))
units-label: µM
IC50: 0.15

---

assayed-system: COX-2 (Mus musculus (Mouse))
assay-method-text: Cell-based COX-2 assay (PGE2 in LPS/IFN-g stimulated RAW264.7 cells)
measurement-parameters: RAW264.7 murine macrophages, LPS + IFN-g, PGE2 readout
Output label 1 for records whose IC50 is lower than 0.1 µM, label 0 for records at or above 0.1 µM.

compound: COc1ccc(-c2cc(CCCCCCCCC[N+]34CC[S][Re]35(=[O])[S]CC[N]5CC4)nn2-c2ccc(S(N)(=O)=O)cc2)cc1 (stereo not shown)
assayed-system: COX-2 (Mus musculus (Mouse))
class-name: label 0
//
compound: NS(=O)(=O)c1ccc(-n2nc(CCCCCCCCC[N+]34CC[S][Re]35(=[O])[S]CC[N]5CC4)cc2-c2ccc(Cl)cc2)cc1 (stereo not shown)
assayed-system: COX-2 (Mus musculus (Mouse))
class-name: label 0
//
compound: NS(=O)(=O)c1ccc(-c2c(-c3ccccc3)noc2CCCCCCCCC[N+]23CC[S][Re]24(=[O])[S]CC[N]4CC3)cc1 (stereo not shown)
assayed-system: COX-2 (Mus musculus (Mouse))
class-name: label 1
//
compound: NS(=O)(=O)c1ccc(-c2c(-c3ccccc3)noc2CCCCCC[N+]23CC[S][Re]24(=[O])[S]CC[N]4CC3)cc1 (stereo not shown)
assayed-system: COX-2 (Mus musculus (Mouse))
class-name: label 0
//
compound: NS(=O)(=O)c1ccc(-n2nc(CCCCCCCCN3CC[S][Re]4(=[O])[S]CC[N]4CC3)cc2-c2ccc(Cl)cc2)cc1 (stereo not shown)
assayed-system: COX-2 (Mus musculus (Mouse))
class-name: label 0
//
compound: NS(=O)(=O)c1ccc(-n2nc(CCCCCCCCC[N+]34CC[S][Re]35(=[O])[S]CC[N]5CC4)cc2-c2ccc(F)cc2)cc1 (stereo not shown)
assayed-system: COX-2 (Mus musculus (Mouse))
class-name: label 0
//
compound: NS(=O)(=O)c1ccc(-c2c(-c3ccccc3)noc2CCCCCCC[N+]23CC[S][Re]24(=[O])[S]CC[N]4CC3)cc1 (stereo not shown)
assayed-system: COX-2 (Mus musculus (Mouse))
class-name: label 1

---

assayed-system: human COX-2 (Homo sapiens (Human), UniProt P35354)
Sequence (P35354 18-604 limits assumed): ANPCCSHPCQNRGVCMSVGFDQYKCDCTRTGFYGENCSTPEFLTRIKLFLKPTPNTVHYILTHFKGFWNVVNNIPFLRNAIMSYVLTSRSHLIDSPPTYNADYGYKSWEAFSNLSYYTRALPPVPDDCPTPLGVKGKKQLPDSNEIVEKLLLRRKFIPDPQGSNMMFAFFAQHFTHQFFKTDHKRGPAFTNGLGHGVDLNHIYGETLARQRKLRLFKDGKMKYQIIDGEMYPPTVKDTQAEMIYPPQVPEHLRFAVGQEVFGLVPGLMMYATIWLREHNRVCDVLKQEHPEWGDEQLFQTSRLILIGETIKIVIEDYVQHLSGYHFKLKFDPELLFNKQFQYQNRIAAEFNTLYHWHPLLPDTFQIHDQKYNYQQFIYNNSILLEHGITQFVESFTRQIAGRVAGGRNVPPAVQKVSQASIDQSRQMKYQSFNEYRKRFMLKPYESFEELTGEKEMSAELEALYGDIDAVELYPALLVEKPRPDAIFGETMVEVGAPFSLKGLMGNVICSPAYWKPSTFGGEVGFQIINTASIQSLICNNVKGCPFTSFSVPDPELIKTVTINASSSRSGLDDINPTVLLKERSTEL
Assay type: biochemical
measurement-parameters: read-out: COX-2 IC50 (μM) enzyme
observed-property: log10 IC50 (log10 of the value in µM)

compound: NS(=O)(=O)c1ccc(-n2nc(CCCCCCCCN3CC[S][Re]4(=[O])[S]CC[N]4CC3)cc2-c2ccc(Cl)cc2)cc1 (stereo not drawn)
assayed-system: human COX-2 (Homo sapiens (Human), UniProt P35354)
log10 IC50: -0.96
//
compound: NS(=O)(=O)c1ccc(-n2nc(CCCCCCN3CC[S][Re]4(=[O])[S]CC[N]4CC3)cc2-c2ccc(Cl)cc2)cc1 (stereo not drawn)
assayed-system: human COX-2 (Homo sapiens (Human), UniProt P35354)
log10 IC50: 0.52
//
compound: Cc1ccc(-c2cc(COCCCCCCC[N+]34CC[S][Re]35(=[O])[S]CC[N]5CC4)nn2-c2ccc(S(N)(=O)=O)cc2)cc1 (stereo not drawn)
assayed-system: human COX-2 (Homo sapiens (Human), UniProt P35354)
log10 IC50: 0.39
//
compound: NS(=O)(=O)c1ccc(-n2nc(COCCCCCCC[N+]34CC[S][Re]35(=[O])[S]CC[N]5CC4)cc2-c2ccc(F)cc2)cc1 (stereo not drawn)
assayed-system: human COX-2 (Homo sapiens (Human), UniProt P35354)
log10 IC50: -0.51
//
compound: NS(=O)(=O)c1ccc(-n2nc(CCCCCCCCC[N+]34CC[S][Re]35(=[O])[S]CC[N]5CC4)cc2-c2ccc(F)cc2)cc1 (stereo not drawn)
assayed-system: human COX-2 (Homo sapiens (Human), UniProt P35354)
log10 IC50: -0.89

---

assayed-system: human COX-2 (Homo sapiens (Human), UniProt P35354)
Assay type: biochemical
measurement-parameters: read-out: COX-2 IC50 (μM) enzyme
Below, each of the compounds is paired with its reported IC50 value.

compound: NS(=O)(=O)c1ccc(-n2nc(CCCCCCCCN3CC[S][Re]4(=[O])[S]CC[N]4CC3)cc2-c2ccc(F)cc2)cc1 (stereo not drawn) [Compound 4]
IC50: 0.59 µM

compound: NS(=O)(=O)c1ccc(-c2c(-c3ccccc3)noc2CCCCCCCCC[N+]23CC[S][Re]24(=[O])[S]CC[N]4CC3)cc1 (stereo not drawn) [Compound 28]
IC50: 0.019 µM

compound: COc1ccc(-c2cc(COCCCCCCCN3CC[S][Re]4(=[O])[S]CC[N]4CC3)nn2-c2ccc(S(N)(=O)=O)cc2)cc1 (stereo not drawn) [Compound 20]
IC50: 0.54 µM

compound: COc1ccc(-c2cc(CCCCCCCCC[N+]34CC[S][Re]35(=[O])[S]CC[N]5CC4)nn2-c2ccc(S(N)(=O)=O)cc2)cc1 (stereo not drawn) [Compound 10]
IC50: 0.06 µM

compound: NS(=O)(=O)c1ccc(-n2nc(CCCCCCCCC[N+]34CC[S][Re]35(=[O])[S]CC[N]5CC4)cc2-c2ccc(Cl)cc2)cc1 (stereo not drawn) [Compound 8]
IC50: 0.19 µM

compound: NS(=O)(=O)c1ccc(-n2nc(CCCCCN3CC[S][Re]4(=[O])[S]CC[N]4CC3)cc2-c2ccc(F)cc2)cc1 (stereo not drawn) [Compound 2]
IC50: 1.33 µM

---

assayed-system: human COX-2 (Homo sapiens (Human))
Assay type: biochemical
measurement-parameters: read-out: COX-2 IC50 (μM) enzyme
Collected IC50 values appear next to each entry.

compound: NS(=O)(=O)c1ccc(-n2nc(COCCCOCCCN3CC[S][Re]4(=[O])[S]CC[N]4CC3)cc2-c2ccc(F)cc2)cc1 (stereo not drawn)
assayed-system: human COX-2 (Homo sapiens (Human))
IC50: 4.15 µM
--
compound: NS(=O)(=O)c1ccc(-n2nc(COCCCCCCN3CC[S][Re]4(=[O])[S]CC[N]4CC3)cc2-c2ccc(Cl)cc2)cc1 (stereo not drawn)
assayed-system: human COX-2 (Homo sapiens (Human))
IC50: > 10 µM
--
compound: NS(=O)(=O)c1ccc(-n2nc(CCCCCCCN3CC[S][Re]4(=[O])[S]CC[N]4CC3)cc2-c2ccc(F)cc2)cc1 (stereo not drawn)
assayed-system: human COX-2 (Homo sapiens (Human))
IC50: > 10 µM
--
compound: NS(=O)(=O)c1ccc(-n2nc(COCCCCCC[N+]34CC[S][Re]35(=[O])[S]CC[N]5CC4)cc2-c2ccc(F)cc2)cc1 (stereo not drawn)
assayed-system: human COX-2 (Homo sapiens (Human))
IC50: 2.36 µM
--
compound: NS(=O)(=O)c1ccc(-c2c(-c3ccccc3)noc2CCCCCC[N+]23CC[S][Re]24(=[O])[S]CC[N]4CC3)cc1 (stereo not drawn)
assayed-system: human COX-2 (Homo sapiens (Human))
IC50: 0.16 µM
--
compound: NS(=O)(=O)c1ccc(-n2nc(COCCCC[N+]34CC[S][Re]35(=[O])[S]CC[N]5CC4)cc2-c2ccc(F)cc2)cc1 (stereo not drawn)
assayed-system: human COX-2 (Homo sapiens (Human))
IC50: 2.37 µM

---

assayed-system: human COX-2 (Homo sapiens (Human))
Assay type: biochemical
measurement-parameters: read-out: COX-2 IC50 (μM) enzyme

compound: Cc1ccc(-c2cc(CCCCCCCCCN3CC[S][Re]4(=[O])[S]CC[N]4CC3)nn2-c2ccc(S(N)(=O)=O)cc2)cc1 (stereo not drawn)
units-label: µM
IC50: 4.49
--
compound: COc1ccc(-c2cc(COCCCCCCN3CC[S][Re]4(=[O])[S]CC[N]4CC3)nn2-c2ccc(S(N)(=O)=O)cc2)cc1 (stereo not drawn)
units-label: µM
IC50: 4.51
--
compound: NS(=O)(=O)c1ccc(-c2c(-c3ccccc3)noc2CCCCCCC[N+]23CC[S][Re]24(=[O])[S]CC[N]4CC3)cc1 (stereo not drawn)
units-label: µM
IC50: 0.07
